# Test system: 6.0 (DMSO control at this site: 1-bp insertion 0.296, MH deletion 0.491, edited 0.076) ACGATTGGCCCCCACAAAGCGGACCAGCCAGCGTGCTAGGGAATAAGGCCAACTTGCACCC
# TEST SUMMARY: fraction of microhomology deletions among edited reads; higher = more MH deletions
# CONDITION SET: mESC; 2uM; 72 h treatment, harvest day 5
MEASURED ENDPOINT: fraction of microhomology deletions among edited reads
Answer with a bare number; do not write a unit.

Solved cases (7 shown):
MOLECULE: O=C1Cc2c([nH]c3ccc(Br)cc23)-c2ccccc2N1
OBSERVED RESULT: 0.526

MOLECULE: NC(=O)c1ccc2nc(-c3ccc(Oc4ccc(Cl)cc4)cc3)[nH]c2c1
OBSERVED RESULT: 0.515

MOLECULE: Cc1cccc(CC(=O)N2CCc3c2ccc(-c2cn(C)c4ncnc(N)c24)c3F)n1
OBSERVED RESULT: 0.501

MOLECULE: S=c1nc[nH]c2nc[nH]c12 [6-Mercaptopurine (6-MP) Monohydrate]
OBSERVED RESULT: 0.429

MOLECULE: CC(C)(C#N)c1ccc(N2C(=O)OCc3cnc4ccc(-c5cnc6ccccc6c5)cc4c32)cc1
OBSERVED RESULT: 0.53

MOLECULE: O=c1cc(N2CCOCC2)oc2c(-c3ccc4c(c3)OCCO4)csc12
OBSERVED RESULT: 0.568

MOLECULE: CO[C@H]1/C=C/O[C@@]2(C)Oc3c(C)c(O)c4c(O)c(c(/C=N/N5CCN(C6CCCC6)CC5)c(O)c4c3C2=O)NC(=O)/C(C)=C\C=C\[C@H](C)[C@H](O)[C@@H](C)[C@@H](O)[C@@H](C)[C@H](OC(C)=O)[C@@H]1C
OBSERVED RESULT: 0.538

Attention now turns to another entry.
Data point: CCCCOc1c(C(=O)c2c(F)cc(C)cc2F)c[nH]c2nncc1-2 ; fraction of microhomology deletions among edited reads = 0.523

###

Entries and their fraction of 1-bp insertions among edited reads
# Test system: 6.0 (DMSO control at this site: 1-bp insertion 0.296, MH deletion 0.491, edited 0.076) ACGATTGGCCCCCACAAAGCGGACCAGCCAGCGTGCTAGGGAATAAGGCCAACTTGCACCC
# TEST SUMMARY: fraction of 1-bp insertions among edited reads; higher = more 1-bp insertion outcomes
# CONDITION SET: mESC; 2uM; 72 h treatment, harvest day 5
When you answer, write just the number.

Study these solved cases before continuing.
SAMPLE SMILES: O=C(c1cccc(Cl)c1F)N1CCN(Cc2cccc(Nc3nccs3)n2)CC1
OBSERVED RESULT: 0.193
//
SAMPLE SMILES: Cc1ccc(C(=O)NCCCCCC(=O)Nc2ccccc2N)cc1
OBSERVED RESULT: 0.292
//
SAMPLE SMILES: CC(C)(C#N)c1ccc(N2C(=O)OCc3cnc4ccc(-c5cnc6ccccc6c5)cc4c32)cc1
OBSERVED RESULT: 0.267

Documented fraction of 1-bp insertions among edited reads of CCN1CCN(CC(=O)Nc2ccc(-c3cccc4c(=O)cc(N5CCOCC5)oc34)c3sc4ccccc4c23)CC1 : 0.0821

So, Cc1cccc(CC(=O)N2CCc3c2ccc(-c2cn(C)c4ncnc(N)c24)c3F)n1 ? Its fraction of 1-bp insertions among edited reads was 0.337

###

Each entry below carries its reported fraction of GFP+ cells.
# Test system: mESC LDLR-Dup GFP reporter (SpCas9 MH-deletion repair)
# TEST SUMMARY: fraction of GFP+ cells relative to DMSO control (fold change); higher = more MH-deletion repair to in-frame LDLR (or more editing)
# CONDITION SET: 2 µM; 7 days post-transfection
Counter-ions that a name gives are not always drawn.
Number, no unit, nothing else.

MOLECULE: CCCCCCCCC/C(=C\C1=C(C)C(=O)C(OC)=C(OC)C1=O)C(=O)O
OBSERVED RESULT: 1.19
--
MOLECULE: O=C(NCc1ccccc1)c1csc(Nc2ccncn2)n1 [Thiazovivin]
OBSERVED RESULT: 0.987
--
MOLECULE: CN(C)c1ccc(-c2nc3ncc(Cl)c(N4CCN(CC(=O)Nc5nccs5)CC4)c3[nH]2)cc1
OBSERVED RESULT: 0.872
--
MOLECULE: COc1cccc2c1c(O)c(C(=O)N(C)c1ccc(C(F)(F)F)cc1)c(=O)n2C [Tasquinimod]
OBSERVED RESULT: 0.837
--
MOLECULE: O=C(NCCN1CCOCC1)Nc1ccc(C(=O)/C=C/c2cccc(N3CCOCC3)n2)cc1
OBSERVED RESULT: 1.18
--
MOLECULE: C[C@@H](N)c1ccc(C(=O)Nc2ccnc3[nH]ccc23)cc1
OBSERVED RESULT: 1.54
--
MOLECULE: CC1=C(C(=O)Nc2cc3cn[nH]c3cc2F)C(c2ccc(C(F)(F)F)cc2)CC(=O)N1 (centres undefined)
OBSERVED RESULT: 1.27
--
MOLECULE: CCc1c2c(nc3ccc(OC(=O)N4CCC(N5CCCCC5)CC4)cc13)-c1cc3c(c(=O)n1C2)COC(=O)[C@]3(O)CC [Irinotecan HCl Trihydrate]
OBSERVED RESULT: 0.463
--
MOLECULE: O=c1nc(N2CCOCC2)oc2c(-c3cccc4c3sc3ccccc34)cccc12
OBSERVED RESULT: 0.761
--
MOLECULE: C=C1C(=O)O[C@@H]2/C=C(\C)CC/C=C(\C)CC[C@@H]12 [Costunolide]
OBSERVED RESULT: 1.22

Value of measured fraction of GFP+ cells for the entry NC(=O)c1ccccc1 [Benzamide] : 1.01

###

# fraction of GFP+ cells per record follows
# System: mESC LDLR-Dup GFP reporter (SpCas9 MH-deletion repair)
# TEST SUMMARY: fraction of GFP+ cells relative to DMSO control (fold change); higher = more MH-deletion repair to in-frame LDLR (or more editing)
# CONDITION SET: 2 µM; 7 days post-transfection
Counter-ions that a name gives are not always drawn.

MOLECULE: Cc1cn([C@H]2O[C@@H](CO)[C@H](O)[C@H]2F)c(=O)[nH]c1=O
fraction of GFP+ cells: 0.898

MOLECULE: NS(=O)(=O)C#Cc1ccccc1
fraction of GFP+ cells: 1.11

MOLECULE: CC(ONC(=O)c1cc(C(F)(F)F)cc(C(F)(F)F)c1)C(=O)Nc1ccc(Cl)cc1 (stereo not given)
fraction of GFP+ cells: 0.994

So, O=C(NCc1cccc(O)c1)Nc1nc(-c2ccncc2)cs1 ? Its fraction of GFP+ cells was 1.11

Form field fraction of GFP+ cells, entry Cc1cccc(Nc2cc(Cl)nc(SCC(=O)O)n2)c1C : 1.56

Item: COc1cc(N2CCN(C)CC2)ccc1Nc1nccc(-c2cn(C)c3cnccc23)n1 | fraction of GFP+ cells: 0.577

Per the records, this molecule ( O=C(CCCCCCNC(=O)c1cnc(N(c2ccccc2)c2ccccc2Cl)nc1)NO ) has fraction of GFP+ cells equal to 0.902

Quick note, fraction of GFP+ cells for C[C@@H]1COCCN1c1cc(C2([S@](C)(=N)=O)CC2)nc(-c2cc[nH]c3nccc2-3)n1 landed at 0.429

The recorded fraction of GFP+ cells for CC(C)(C)OC(=O)Nc1ccc(-c2cc(C(=O)NCCCCCCC(=O)NO)no2)cc1 is 0.902

// fraction of GFP+ cells lookup, molecule = CN(Cc1cnc2nc(N)nc(N)c2n1)c1ccc(C(=O)N[C@@H](CCC(=O)O)C(=O)O)cc1 [Methotrexate] , result: 1.53

The recorded fraction of GFP+ cells for CC1(C)CCC2=C(O1)c1ccccc1C(=O)C2=O is 0.973

// fraction of GFP+ cells value for COc1c2ccoc2cc2oc(=O)ccc12 : 0.969

Query O=C1C[C@@H](c2ccc(O)cc2)Oc2cc(O)cc(O)c21 yields fraction of GFP+ cells of 0.997

// fraction of GFP+ cells lookup, molecule = N#CSc1cc(SC#N)c(N)nc1N , result: 1.23

Input Nc1[nH]cnc2ncnc1-2 [Adenine HCl] . Output fraction of GFP+ cells: 1.31

###

# Test system: mESC LDLR-Dup GFP reporter (SpCas9 MH-deletion repair)
# TEST SUMMARY: fraction of GFP+ cells relative to DMSO control (fold change); higher = more MH-deletion repair to in-frame LDLR (or more editing)
# CONDITION SET: 2 µM; 7 days post-transfection
Structures can show the parent of a compound that is named as a salt.
The entries below come with measured fraction of GFP+ cells values attached.

Known results for molecules:
MOLECULE: CCc1nc(N)nc(N)c1-c1ccc(Cl)cc1
fraction of GFP+ cells: 1.5
--
MOLECULE: O=C(c1cccc(Cl)c1F)N1CCN(Cc2cccc(Nc3nccs3)n2)CC1
fraction of GFP+ cells: 1.25

Please find the next molecule below.
Record CN1CCCC(n2nc(Cc3ccc(Cl)cc3)c3ccccc3c2=O)CC1 (configuration not stated) [Azelastine HCl] . Reported fraction of GFP+ cells: 0.868
